Target chain: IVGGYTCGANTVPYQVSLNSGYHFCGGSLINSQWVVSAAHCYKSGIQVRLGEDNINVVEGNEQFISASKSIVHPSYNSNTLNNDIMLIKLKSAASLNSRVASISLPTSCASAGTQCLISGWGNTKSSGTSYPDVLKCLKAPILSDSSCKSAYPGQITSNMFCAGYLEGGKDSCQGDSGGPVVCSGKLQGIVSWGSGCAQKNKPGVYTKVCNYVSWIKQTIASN
pIC50: −log10 of the molar value.
Respond with Satisfied for pIC50 values of 7 and above, Not satisfied for values below.

[
  {
    "MOLECULE": "CC(=O)Nc1ccc(C(=O)Oc2ccc(C(=N)N)cc2C(=O)c2ccccc2)cc1",
    "LABEL CLASS": "Satisfied"
  },
  {
    "MOLECULE": "N=C(N)c1ccc(OC(=O)CCN)c(C(=O)c2ccccc2)c1",
    "LABEL CLASS": "Not satisfied"
  },
  {
    "MOLECULE": "CC=CC=CC(=O)Oc1ccc(C(=N)N)cc1C(=O)c1ccccc1",
    "LABEL CLASS": "Not satisfied"
  },
  {
    "MOLECULE": "COC(=O)c1ccc(C(=O)Oc2ccc(C(=N)N)cc2C(=O)c2ccccc2)cc1",
    "LABEL CLASS": "Not satisfied"
  },
  {
    "MOLECULE": "COc1cc(C(=N)N)ccc1OC(=O)[C@H]1CC[C@H](CN)CC1",
    "LABEL CLASS": "Not satisfied"
  },
  {
    "MOLECULE": "N=C(N)c1ccc(OC(=O)c2ccccc2)c(C(=O)O)c1 [Compound 24, 4-amidino-2-carboxyphenyl benzoate]",
    "LABEL CLASS": "Not satisfied"
  },
  {
    "MOLECULE": "N=C(N)Nc1ccc(C(=O)Oc2ccc(C(=N)N)cc2[N+](=O)[O-])cc1",
    "LABEL CLASS": "Satisfied"
  }
]
